assay: in vitro; conditions: male, human, 90% human serum (from human male AB plasma)
Non-standard residues stand in square brackets, D forms with d. Residues, ends and D or L forms follow the SMILES beside them. Nle = CCCC[C@H](N)C(=O)O
endpoint: remaining at 0.75 h, 200 μM

>  <molecule>
CCCC[C@H](N)C(=O)N[C@@H](Cc1ccccc1)C(=O)N[C@H](C(=O)N1CCC[C@H]1C(=O)N[C@@H](Cc1c[nH]c2ccccc12)C(=O)N[C@@H](Cc1ccccc1)C(=O)N[C@@H](CO)C(=O)N[C@@H](CCCCN)C(=O)N[C@@H](Cc1ccccc1)C(=O)N[C@H](CC(C)C)C(=O)N[C@H](CCCCN)C(=O)N[C@@H](CCCNC(=N)N)C(=O)N[C@H](C(=O)N[C@@H](CC(C)C)C(N)=O)[C@@H](C)CC)C(C)C [[Nle^1, DLeu^9, DLys^10]TL] (H-[Nle]FVPWFSKF[dL][dK]RIL-NH2)

>  <reported result>
~75%

$$$$

* * *

experiment: in vitro; conditions: male, human, 90% human serum (from human male AB plasma)
Non-standard residues stand in square brackets, D forms with d. Residues, ends and D or L forms follow the SMILES beside them. Nle = CCCC[C@H](N)C(=O)O
endpoint: remaining at 2 h, 200 μM

>  <compound>
CCCC[C@H](N)C(=O)N[C@@H](Cc1ccccc1)C(=O)N[C@H](C(=O)N1CCC[C@H]1C(=O)N[C@@H](Cc1c[nH]c2ccccc12)C(=O)N[C@@H](Cc1ccccc1)C(=O)N[C@@H](CO)C(=O)N[C@@H](CCCCN)C(=O)N[C@@H](Cc1ccccc1)C(=O)N[C@H](CC(C)C)C(=O)N[C@H](CCCCN)C(=O)N[C@@H](CCCNC(=N)N)C(=O)N[C@H](C(=O)N[C@@H](CC(C)C)C(N)=O)[C@@H](C)CC)C(C)C [[Nle^1, DLeu^9, DLys^10]TL] (H-[Nle]FVPWFSKF[dL][dK]RIL-NH2)

>  <reported result>
~50%

$$$$

These measurements were taken from paper PMC9598925.
